Observed Ki values for Cathepsin H (Capra hircus, UniProt A0A060INS8) are listed in what follows.
Kindly provide the numeric value in nM only, without the unit symbol.

Input: Given the compound O=C(c1ccccc1)N1N=C(c2ccccc2)CC1c1cccc([N+](=O)[O-])c1 (centres undefined) , what is its reported Ki?
Output: 980

Input: Given the compound O=CN1N=C(c2ccccc2)CC1c1cccc(Cl)c1 (centres undefined) , what is its reported Ki?
Output: 130

Input: Given the compound COc1ccccc1C1CC(c2ccccc2)=NN1C(=O)c1ccccc1 (centres undefined) , what is its reported Ki?
Output: 9650

Input: Given the compound COc1cccc(C2CC(c3ccccc3)=NN2C=O)c1 (centres undefined) , what is its reported Ki?
Output: 272

Input: Given the compound O=C(c1ccccc1)N1N=C(c2ccccc2)CC1c1ccc(Cl)cc1 (centres undefined) , what is its reported Ki?
Output: 3010

Input: Given the compound O=C(c1ccccc1)N1N=C(c2ccccc2)CC1c1ccc([N+](=O)[O-])cc1 (centres undefined) , what is its reported Ki?
Output: 1270

Input: Given the compound O=C(c1ccccc1)N1N=C(c2ccccc2)CC1c1ccccc1Cl (centres undefined) , what is its reported Ki?
Output: 1890

Input: Given the compound O=CN1N=C(c2ccccc2)CC1c1ccccc1Cl (centres undefined) , what is its reported Ki?
Output: 135

Input: Given the compound COc1ccc(C2CC(c3ccccc3)=NN2C=O)cc1 (centres undefined) , what is its reported Ki?
Output: 221
